Test: Drug uptake in db/db mouse blood at 100 mg/kg, po qd after 6 hrs
Assay type: ADME, organism-based
Conditions: whole blood, read-out: Drug uptake
METRIC: concentration at 6 h (µM)
Numbers only, in µM.

- CC(C)(O)c1ccnc(-c2cccc3cc([C@H](NS(=O)(=O)C4CC4)c4nc(N)ncc4Cl)sc23)c1: 19

Query (molecule): "CC(C)(O)c1ccnc(-c2cccc3cc([C@H](NS(=O)(=O)C4CC4)c4c(Cl)cnc(N)c4F)sc23)c1" ; field requested: concentration at 6 h 21

###

Experiment: Plasma concentration in Sprague-Dawley rat at 100 mg/kg, po qd after 6 hrs
Type: ADME, organism-based
METRIC: concentration at 6 h

Query (molecule): "CC(C)(O)c1ccnc(-c2cccc3cc([C@H](NS(=O)(=O)C4CC4)c4nc(N)ncc4Cl)sc23)c1" ; field requested: concentration at 6 h 23 µM

###

Assay: Drug uptake in db/db mouse blood at 30 mg/kg, po qd after 6 hrs
Format: ADME, organism-based
Conditions: whole blood, read-out: Drug uptake
METRIC: concentration at 6 h (µM)
Give bare numbers, in µM.

Query (molecule): "CC(C)(O)c1ccnc(-c2cccc3cc([C@H](NS(=O)(=O)C4CC4)c4nc(N)ncc4Cl)sc23)c1" ; field requested: concentration at 6 h 4.1

###

Assay: Half life in Sprague-Dawley rat at 2 mg/kg, iv
Format: ADME, organism-based
Settings: in vivo
Assign half-life to each entry below.
Give bare numbers, in h.

* CC(C)(O)c1ccnc(-c2cccc3cc([C@H](NS(=O)(=O)C4CC4)c4c(Cl)cnc(N)c4F)sc23)c1 | 3.1

Here is the next item to consider.
Query (compound): "CC(C)(O)c1ccnc(-c2cccc3cc([C@H](NS(=O)(=O)C4CC4)c4nc(N)ncc4Cl)sc23)c1" ; field requested: half-life 3

###

Assign EC50 to each entry below.
Target: Glucokinase regulatory protein (Mus musculus)
Sequence (Q91X44 whole entry): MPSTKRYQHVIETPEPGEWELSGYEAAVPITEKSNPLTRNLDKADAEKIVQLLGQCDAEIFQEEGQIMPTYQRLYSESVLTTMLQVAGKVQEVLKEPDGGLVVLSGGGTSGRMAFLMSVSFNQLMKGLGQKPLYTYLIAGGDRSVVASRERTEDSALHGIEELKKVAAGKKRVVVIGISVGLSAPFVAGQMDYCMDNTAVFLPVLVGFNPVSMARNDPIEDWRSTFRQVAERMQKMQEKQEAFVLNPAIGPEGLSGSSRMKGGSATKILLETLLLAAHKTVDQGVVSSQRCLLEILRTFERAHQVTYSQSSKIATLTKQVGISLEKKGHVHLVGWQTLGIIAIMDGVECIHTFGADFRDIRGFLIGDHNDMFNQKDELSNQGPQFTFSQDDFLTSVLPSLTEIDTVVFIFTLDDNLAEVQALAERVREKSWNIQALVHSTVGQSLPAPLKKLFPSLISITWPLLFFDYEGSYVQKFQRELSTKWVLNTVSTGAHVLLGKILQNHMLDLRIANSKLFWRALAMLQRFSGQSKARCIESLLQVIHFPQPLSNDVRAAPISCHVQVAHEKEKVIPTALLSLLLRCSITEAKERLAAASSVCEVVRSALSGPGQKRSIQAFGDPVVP
Assay: Inhibition of glucokinase-GKRP binding interaction in mouse hepatocytes assessed as induction of glucokinase translocation
Numbers only, in µM.

Check out these entries, answers already filled in.
• O=S(=O)(N[C@@H](c1cc2ccccc2s1)c1ccccc1Cl)c1ccc2c(c1)OCC(F)CO2 (mixture of isomers) = 4.1
• O=S(=O)(N[C@@H](c1cc2ccccc2s1)c1ccccc1Cl)c1ccc2c(c1)OCC(O)CO2 (mixture of isomers) = 4.3
• O=S(=O)(N[C@@H](c1cc2ccccc2o1)c1ccccc1Cl)c1ccc2c(c1)OCCCO2 = 6.3

Identify the measured EC50 of "O=S(=O)(N[C@@H](c1nc2cccnc2s1)c1ccccc1Cl)c1ccc2c(c1)OCCCO2" for Glucokinase regulatory protein (Mus musculus). 3.3

###

Experiment: Plasma concentration in Sprague-Dawley rat at 10 mg/kg, po qd after 6 hrs
Format: ADME, organism-based
METRIC: concentration at 6 h
Please format your answer as a value with the unit trailing.

Query (compound): "CC(C)(O)c1ccnc(-c2cccc3cc([C@H](NS(=O)(=O)C4CC4)c4nc(N)ncc4Cl)sc23)c1" ; field requested: concentration at 6 h 2900 nM

###

Target: Hexokinase-4 (Homo sapiens)
Assay: Effect on human glucokinase activity after 60 mins by luciferase-based luminescence assay in absence of human GKRP
METRIC: EC50

Identify the measured EC50 of O=S(=O)(NC(c1ccccc1)c1cc2ccccc2o1)c1ccc2c(c1)OCCCO2 (stereo unspecified) for Hexokinase-4 (Homo sapiens). > 100 µM

###

Test: Plasma concentration in Sprague-Dawley rat at 100 mg/kg, po qd at 24 hrs
Type: ADME, organism-based
METRIC: concentration at 24 h (µM)
Answers are plain numbers, in µM.

- CC(C)(O)c1ccnc(-c2cccc3cc([C@H](NS(=O)(=O)C4CC4)c4c(Cl)cnc(N)c4F)sc23)c1: 6.3

Here is the next item to consider.
Query (molecule): "CC(C)(O)c1ccnc(-c2cccc3cc([C@H](NS(=O)(=O)C4CC4)c4nc(N)ncc4Cl)sc23)c1" ; field requested: concentration at 24 h 0.21

###

Assay: Volume of distribution at steady state in Sprague-Dawley rat at 2 mg/kg, iv
Assay type: ADME, organism-based
Conditions: in vivo, read-out: Vdss
METRIC: Vd

- CC(C)(O)c1ccnc(-c2cccc3cc([C@H](NS(=O)(=O)C4CC4)c4c(Cl)cnc(N)c4F)sc23)c1: 1.6 L/kg

Here is the next item to consider.
Query (compound): "CC(C)(O)c1ccnc(-c2cccc3cc([C@H](NS(=O)(=O)C4CC4)c4nc(N)ncc4Cl)sc23)c1" ; field requested: Vd 1.3 L/kg

###

Assay: Oral bioavailability in Sprague-Dawley rat at 10 mg/kg
Type: ADME, organism-based
Details: in vivo
Assign bioavailability to each entry below.
Give bare numbers, in %.

- CC(C)(O)c1ccnc(-c2cccc3cc([C@H](NS(=O)(=O)C4CC4)c4nc(N)ncc4Cl)sc23)c1: 25

Here is the next item to consider.
Query (molecule): "CC(C)(O)c1ccnc(-c2cccc3cc([C@H](NS(=O)(=O)C4CC4)c4c(Cl)cnc(N)c4F)sc23)c1" ; field requested: bioavailability 46

###

Assign Tmax to each entry below.
Test: Tmax in Sprague-Dawley rat at 10 mg/kg, po
Format: ADME, organism-based
Settings: in vivo
Please format your answer as a value with the unit trailing.

* CC(C)(O)c1ccnc(-c2cccc3cc([C@H](NS(=O)(=O)C4CC4)c4c(Cl)cnc(N)c4F)sc23)c1 | 3.3 h

Query (compound): "CC(C)(O)c1ccnc(-c2cccc3cc([C@H](NS(=O)(=O)C4CC4)c4nc(N)ncc4Cl)sc23)c1" ; field requested: Tmax 4.7 h

###

Target protein (sequence): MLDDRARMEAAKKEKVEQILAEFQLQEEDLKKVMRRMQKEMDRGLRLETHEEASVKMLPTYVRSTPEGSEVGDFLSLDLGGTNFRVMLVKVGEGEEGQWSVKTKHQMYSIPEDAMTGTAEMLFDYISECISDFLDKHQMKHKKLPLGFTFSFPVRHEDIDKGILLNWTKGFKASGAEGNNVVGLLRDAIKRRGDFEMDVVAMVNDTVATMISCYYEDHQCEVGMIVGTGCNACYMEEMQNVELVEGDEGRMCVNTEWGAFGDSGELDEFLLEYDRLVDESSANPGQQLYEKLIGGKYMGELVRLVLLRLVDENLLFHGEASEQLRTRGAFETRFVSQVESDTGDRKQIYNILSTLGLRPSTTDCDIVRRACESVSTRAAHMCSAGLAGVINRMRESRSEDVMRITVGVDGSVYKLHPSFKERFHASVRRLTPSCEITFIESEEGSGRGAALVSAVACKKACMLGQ
Assign Kd to each entry below.

• O=S(=O)(N[C@@H](c1cc2ccccc2s1)c1ccccc1Cl)c1ccc2c(c1)OCCCO2 = > 10 µM

Here is the next item to consider.
Query (compound): O=S(=O)(NC(c1ccccc1)c1cc2ccccc2o1)c1ccc2c(c1)OCCCO2 (configuration not stated) ; field requested: Kd > 20 µM

###

Assay: Drug uptake in db/db mouse blood at 100 mg/kg, po qd after 3 hrs
Type: ADME, organism-based
Conditions: whole blood, read-out: Drug uptake
METRIC: concentration at 3 h (µM)
One number for each entry, in µM.

Query (compound): "CC(C)(O)c1ccnc(-c2cccc3cc([C@H](NS(=O)(=O)C4CC4)c4c(Cl)cnc(N)c4F)sc23)c1" ; field requested: concentration at 3 h 25

###

Assign fraction unbound to each entry below.
Assay: Plasma protein binding in rat by rapid equilibrium dialysis method
Format: ADME, cell-free
Conditions: read-out: PPB
One number for each entry.

Your task in this section: give fraction unbound for each listed record.
1. CC(C)(O)c1ccnc(-c2cccc3cc([C@H](NS(=O)(=O)C4CC4)c4c(Cl)cnc(N)c4F)sc23)c1
2. CC(C)(O)c1ccnc(-c2cccc3cc([C@H](NS(=O)(=O)C4CC4)c4nc(N)ncc4Cl)sc23)c1

1: 0.01; 2: 0.01
